// data source = ChEMBL document CHEMBL3988442

Below, each of the molecules is paired with its reported Percent Effect value.
test system: Trypanosoma cruzi; assay: Trypanosoma cruzi phosphomannomutase and mannose-1-phosphate guanylyltransferase assay; format: functional; design: scale not given: direction of the effect not stated beside the values; conditions: 10 µM
Only the number, expressed in %, is required.

COc1ccc(CN2C[C@@H](OCc3csc(C)n3)[C@H]3COC[C@H]32)cc1	-2.78

# input Given the entry CCCS(=O)(=O)N1CCC(NC(=O)c2ccc(Cl)s2)CC1 , report its measured Percent Effect.
# output 5.16

# input Another: CNC(=O)C(C)(C)NC(=O)c1cc(OCC2CCC2)cc(C(=O)OC)c1
# output 2.35

====

biological target: Tyrosyl-tRNA synthetase, putative (Trypanosoma cruzi (strain CL Brener)) (UniProt Q4DSP6); experiment: Trypanosoma cruzi tyrosyl tRNA synthetase (TcYRS) SOP; type: functional; parameters: scale not given: direction of the effect not stated beside the values; conditions: 30 µM
measured.attribute: Percent Effect (%)
Only the number, expressed in %, is required.

Reference set, count: 5
CCc1nc(C)c(C(=O)NCCNc2ncccn2)s1	16.1
c1ccc(C2CCCN2Cc2nnnn2C2CC2)cc1 (stereo unspecified)	0
CC(=O)N1CCN(Cn2nc(-c3ccc(F)cc3)oc2=O)CC1	21.9
CCc1ccc(C(=O)O)cc1S(=O)(=O)Nc1ccc(F)c(C#N)c1	1.24
CCOc1ncccc1C(=O)N(C)Cc1ncc(C)c(OC)c1C	18.8

Okay, next one:
# input Given the entry CN(C)C(=O)CSc1nnc(CCNC(=O)OC(C)(C)C)o1 , report its measured Percent Effect.
# output 2.56

====

Target: Tyrosyl-tRNA synthetase, putative (Trypanosoma cruzi (strain CL Brener))
Sequence (whole entry): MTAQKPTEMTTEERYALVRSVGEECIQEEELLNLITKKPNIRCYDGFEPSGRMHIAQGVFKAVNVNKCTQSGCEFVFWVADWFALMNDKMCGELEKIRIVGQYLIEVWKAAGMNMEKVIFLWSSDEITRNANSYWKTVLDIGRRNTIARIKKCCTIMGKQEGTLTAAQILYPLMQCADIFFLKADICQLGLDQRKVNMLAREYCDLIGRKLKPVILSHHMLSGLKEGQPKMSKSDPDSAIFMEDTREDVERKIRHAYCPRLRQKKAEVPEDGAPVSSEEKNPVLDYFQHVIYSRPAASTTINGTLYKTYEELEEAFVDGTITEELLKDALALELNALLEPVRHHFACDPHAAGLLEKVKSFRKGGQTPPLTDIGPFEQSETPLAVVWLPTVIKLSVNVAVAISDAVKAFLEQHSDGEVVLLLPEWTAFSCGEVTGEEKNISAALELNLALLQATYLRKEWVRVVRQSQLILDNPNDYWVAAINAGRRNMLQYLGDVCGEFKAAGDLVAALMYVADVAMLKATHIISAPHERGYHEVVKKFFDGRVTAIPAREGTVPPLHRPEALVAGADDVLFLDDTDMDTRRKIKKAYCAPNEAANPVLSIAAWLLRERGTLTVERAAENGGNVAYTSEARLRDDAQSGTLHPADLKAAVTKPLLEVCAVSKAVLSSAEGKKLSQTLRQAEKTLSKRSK
Experiment: Trypanosoma cruzi tyrosyl tRNA synthetase (TcYRS) SOP
Format: functional
Parameters: scale not given: direction of the effect not stated beside the values
Settings: 30 µM
Below, each of the compounds is paired with its reported Percent Effect value.
Only the number, expressed in %, is required.

Reference set, count: 2
CCCc1nc(CN2CCOC(CNc3cccnn3)C2)cs1 (configuration not stated)	30.9
CC(=O)N1CCN(C(=O)NCc2csc(Br)c2)CC1	1.22

# input Given the entry COCC(=O)N1CCC[C@]2(C(=O)N(C)C)CN(c3ccccn3)C[C@@H]2C1 , report its measured Percent Effect.
# output 5

# input Another: CN(C)CCn1c(=O)oc2ccc(NC(=O)CC(C)(C)C)cc21
# output 23.5

# input Another: COc1ccc(CC(=O)N2CCCC2Cn2cccn2)cc1F (configuration not stated)
# output 1.24

# input Another: CC(Cn1ccnc1)NC(=O)C1(c2ccc(F)cc2)CC1 (configuration not stated)
# output 16.5

# input Another: Cn1cccc1CN1CCC2(CCCN(C(=O)c3cnccn3)C2)C1 (configuration not stated)
# output -1.28

# input Another: CCc1nnc2n1CCN(C(=O)c1cnc3ccccc3n1)C2
# output 12.8

# input Another: O[C@H]1[C@H](n2cc(-c3cccnc3)nn2)c2ccccc2C12CCNCC2
# output 10.3

# input Another: CCN(CC)C(=O)c1ccc(-c2ccsc2)nc1C
# output 5.13

# input Another: Cc1ccc(N2CCCC(NCC(=O)NCC3CC3)C2)nn1 (configuration not stated)
# output 15.2

# input Another: CN(C)Cc1ccnc(C2CCCN2Cc2cc[nH]n2)n1 (configuration not stated)
# output 3.9
